Field: Ratio. Provide a value for each of the compounds that follow.
Biological target: NAD(P)H dehydrogenase [quinone] 1 (Mus musculus) (UniProt Q64669)
Sequence (Q64669 whole entry): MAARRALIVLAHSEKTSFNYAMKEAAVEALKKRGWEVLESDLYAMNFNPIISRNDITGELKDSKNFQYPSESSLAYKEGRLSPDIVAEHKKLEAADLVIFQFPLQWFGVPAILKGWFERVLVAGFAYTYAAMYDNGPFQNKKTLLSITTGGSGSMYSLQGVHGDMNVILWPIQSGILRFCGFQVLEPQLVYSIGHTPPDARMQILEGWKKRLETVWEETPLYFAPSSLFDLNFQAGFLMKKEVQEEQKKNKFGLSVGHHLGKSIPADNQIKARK
Test: Induction of quinone reductase 1 activity in mouse Hepa-1c1c7 cells at 50 uM by MTT assay relative to untreated control
Format: cell-based

Prompt line: Supply Ratio value. Item: "COC(=O)[C@H]1Cc2c([nH]c3ccccc23)CN1Cc1ccc(O)cc1"
Response line: 1.8

Prompt line: Supply Ratio value. Item: "O=C(O)[C@@H]1Cc2c([nH]c3ccccc23)CN1CC1CC1"
Response line: 2.4

Prompt line: Supply Ratio value. Item: "O=C(O)[C@H]1Cc2c([nH]c3ccccc23)CN1"
Response line: 0.8

Prompt line: Supply Ratio value. Item: "COC(=O)[C@H]1Cc2c([nH]c3ccccc23)CN1Cc1ccc(OCc2ccccc2)cc1"
Response line: 1.4

Prompt line: Supply Ratio value. Item: "COC(=O)[C@@H]1Cc2c([nH]c3ccccc23)CN1S(=O)(=O)c1ccc(Br)cc1"
Response line: 0.2

Prompt line: Supply Ratio value. Item: "COC(=O)[C@H]1Cc2c([nH]c3ccccc23)CN1CC1CC1"
Response line: 1.8

Prompt line: Supply Ratio value. Item: "O=C(O)[C@@H]1Cc2c([nH]c3ccccc23)CN1S(=O)(=O)c1ccc(Br)cc1"
Response line: 1.3

Prompt line: Supply Ratio value. Item: "CCCCCNC(=O)N1Cc2[nH]c3ccccc3c2C[C@@H]1C(=O)OC"
Response line: 4.3

Prompt line: Supply Ratio value. Item: "C=CCOC(=O)N1Cc2[nH]c3ccccc3c2C[C@@H]1C(=O)OC"
Response line: 2.8

Prompt line: Supply Ratio value. Item: "C=CCOC(=O)N1Cc2[nH]c3ccccc3c2C[C@H]1C(=O)O"
Response line: 2.4
